Would you kindly list TGI for each of these compounds?
# Test system: COLO 205 colon
# assay-procedure: NCI tumour cell line growth inhibition, 48 h

Hi, could you look up TGI for each item in my list?
1. O=[N+]([O-])c1nc(-c2ccccn2)[nH]c1[N+](=O)[O-]
2. Nc1sc2c(c1C(=O)c1ccc(Cl)c(Cl)c1)CCCC2
3. ON/N=C/c1cc2c(cc1Br)OCO2
4. Cc1ccc(S(=O)(=O)N2CCCN(S(=O)(=O)c3ccc(C)cc3)CCN(S(=O)(=O)c3ccc(C)cc3)CCCSCC2)cc1
5. O=[N+]([O-])c1ccc(S(=O)(=O)Cc2ccccc2)c([N+](=O)[O-])c1

Result:
1: > 100 µM; 2: > 100 µM; 3: > 386 µM; 4: > 100 µM; 5: 3.26 µM

Hi, could you look up TGI for each item in my list?
1. NCCSc1nc2ccccc2s1
2. C=CCOC(=O)N1[C@H]2C#C/C=C\C#C[C@]3(O)C(=O)C[C@H](C)[C@]24O[C@]43C2=CC(=O)C=CC21OC (stereo not given in full)
3. CC(=O)ON(C(C)=O)c1ccc(-c2nc3ccccc3s2)cc1

Result:
["> 100 µM", "38.8 µM", "> 53.7 µM"]

----------
Would you kindly list TGI for each of these compounds?
# Tested on: SK-OV-3 ovarian
# assay-procedure: NCI tumour cell line growth inhibition, 48 h
Where a name gives a salt, the structure may show the parent alone. Where a SMILES comes first, the peptide text is derived from it. The star is where a group is joined. Tfa = O=C(C(F)(F)F)*

Answered examples (3):
>>> df
                                   compound        tested_on  quantity_measured     value
0            CCOc1ccc2nc(-c3ccc(O)cc3)sc2c1  SK-OV-3 ovarian                TGI   94.3 µM
1  N#CN=C(N)c1sc2nc3c(c(-c4ccc(Br)cc4)c2c1N)CCCC3  SK-OV-3 ovarian                TGI  > 100 µM
2  Cc1cccc(C(C)C)c1NC(=O)C(=O)CC(=O)c1sc(Nc2ccccc2Cl)nc1C  SK-OV-3 ovarian                TGI  > 100 µM

Hi, could you look up TGI for each item in my list?
1. O=C(O)CC(NC(=O)C(F)(F)F)C(=O)NC(Cc1ccc(O)cc1)C(=O)O (stereo not drawn) (Tfa-Asp-Tyr-OH; configuration not given here)
2. COc1ccccc1NC(=O)c1sc2nc3c(cc2c1N)C(=O)CCC3
3. COc1ccc(/C=C2\CCC(C)C3=C(c4ccc(OC)c(OC)c4)C(C#N)=C(N)OC32)cc1OC (centres undefined)
4. O=c1c2cc(-c3ccccc3)sc2nc2n1N=C(c1ccccc1)CS2

Result:
> 50 µM
> 100 µM
36.4 µM
26.3 µM

----------
Would you kindly list TGI for each of these compounds?
# Test system: XF 498 CNS
# assay-procedure: NCI tumour cell line growth inhibition, 48 h

Hi, could you look up TGI for each item in my list?
1. OC1[C@H]([C@H]2CCCC[C@@H]2O)CCC[C@@H]1[C@@H]1CCCC[C@H]1O (some centres undefined)
2. Nc1ncnc2c1ncn2C1OC(COP(=O)(O)O)C(O)C1O (centres undefined)
3. COC1=C2CC(C)CC(OC)C(O)C(C)/C=C(\C)C(OC(N)=O)C(OC)/C=C\C=C(/C)C(=O)NC(=C(C=NC(C)(C)C)C1=O)C2=O (centres undefined)

Result:
> 100 µM
> 44.7 µM
3.09 µM

Hi, could you look up TGI for each item in my list?
1. CC1CC(C2=CC=CCS2)=Nc2ccccc2S1 (centres undefined)
2. Cc1cn(Cc2ccccc2CCO)c(=S)[nH]c1=O
3. CC(C)(C)NNC(=O)/C(=C/c1ccc([N+](=O)[O-])cc1)NC(=O)c1ccccc1
4. Cc1cc(N(CCC#N)CCC#N)ccc1/C=C1N=C(/C=C\c2ccccc2)OC\1=O
5. CC1(C)CCC[C@@]2(C)C1CCC1(C)C(CCc3ccoc3)/C(=C/OS(=O)(=O)O)CCC12 (some centres undefined) (tested in a mixture with another compound)
6. Cc1ccc(S(=O)(=O)N[C@H](C(=O)O)c2ccccc2)cc1

Result:
["> 100 µM", "> 100 µM", "> 100 µM", "> 100 µM", "> 100 µM", "> 100 µM"]

Data origin, for the record: PubChem BioAssay (NCI)
